B1: ZNF263 (parent)
chain: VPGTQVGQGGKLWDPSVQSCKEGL

Variants of: B1
Test: protein stability index of a GFP-peptide fusion (GPS, HEK-293T) (PSI 1-6); higher = more stable;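 also: lentivirally expressed fusions sorted by FACS into six bins by GFP to DsRed ratio, PSI derived from sequencing read proportions per bin multiplied by bin number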
Conditions: c terminus: a fixed tail appended
# protein stability index values compiled below
Number only, no unit.

>  <changes>
C20V

>  <quantity>
protein stability index

>  <result.number>
4.36

$$$$
>  <changes>
Q8D

>  <quantity>
protein stability index

>  <result.number>
4.71

$$$$
>  <changes>
L12N

>  <quantity>
protein stability index

>  <result.number>
4.42

$$$$

Ask: Supply measured protein stability index of "W13Q" in your reply.
Reply: 4.79

Ask: Supply measured protein stability index of "V6M" in your reply.
Reply: 4.29

Ask: Supply measured protein stability index of "P2R" in your reply.
Reply: 4.24

Ask: Supply measured protein stability index of "G3S" in your reply.
Reply: 3.48

Ask: Supply measured protein stability index of "Q8Y" in your reply.
Reply: 3.21

Ask: Supply measured protein stability index of "V6F" in your reply.
Reply: 4.65

Ask: Supply measured protein stability index of "Q18M" in your reply.
Reply: 4.38

Ask: Supply measured protein stability index of "G23L" in your reply.
Reply: 3.62
